Entries annotated with measured Δ dp/dt
Tested on: male Wistar rats
conditionInfo: 1600 μg/kg i.v.
quantityMeasured: Δ dp/dt

In [3]: df
Out[3]:
                                   compound  quantitymeasured        observedresult
0  COc1ccc([C@@H]2[C@@H](C(=O)NCCCCNC(=N)NCC=C(C)C)[C@@H](C(=O)NCCCCNC(=N)NCC=C(C)C)[C@@H]2c2ccc(OC)c(OC)c2)cc1OC           Δ dp/dt  +3676 ± 264 mmHg/sec
1  NCCCCN=C(N)N [agmatine, 4-(aminobutyl)guanidine, reference compound]           Δ dp/dt    +981 ± 94 mmHg/sec
2  COc1ccc(C=CC(=O)NCCCCNC(=N)NCC=C(C)C)cc1OC           Δ dp/dt  +2996 ± 104 mmHg/sec
3        COc1ccc(C=CC(=O)NCCCCNC(=N)N)cc1OC           Δ dp/dt    -642 ± 76 mmHg/sec
4                      CC(C)=CCNC(=N)NCCCCN           Δ dp/dt  +2157 ± 655 mmHg/sec
5  CC(C)=CCN=C(N)N [galegine, prenylguanidine, reference compound]           Δ dp/dt  +1724 ± 104 mmHg/sec
